The compounds listed here are annotated with their %, relative to the controls, of 5-HT at dose of 10 mg/kg.
Test system: brain levels of L-5-hydroxytryptophan (L-5-HTP), serotonin (5-HT) and 5-hydroxyindoleacetic acid (5-HIAA)
Assay: Biochemical analysis of brain levels of L-5-HTP, 5-HT and 5-HIAA one hour after a single dose (technique of CURZON and GREEN)
Format: in vivo, rats
Conditions: brain level, adult rats, single dose 10 mg/kg, one hour after administration, percentage increase relative to control animals
Procedure: Biochemical analysis of the brain levles of L-5-hydroxytryptophan (L-5-HTP), serotonin (5-HT) and its first metabolite, 5-hydroxyindoleacetic acid (5- HIAA), was carried out one hour after the administration of a single dose to adult rats by the technique of CURZON and GREEN. Three doses were studied, i.e. 10, 25 and 50 mg/kg, 10 animals being used per dose. Table I below indicates the percentage increases in 5-HTP, 5-HT and 5-HIAA relative to the levels found in the control animals: […]
Square brackets hold non-standard residues; d marks the D form. Peptide text beside a SMILES is read from it. Trp(5-OH) = N[C@@H](Cc1c[nH]c2ccc(O)cc12)C(=O)O
Recorded endpoint: %, relative to the controls, of 5-HT at dose of 10 mg/kg (%)

| Compound | Recorded value |
| --- | --- |
| CCOC(=O)CC[C@H](NC(=O)[C@@H](N)Cc1c[nH]c2ccc(O)cc12)C(=O)OCC.Cl [Example 3] (H-[Trp(5-OH)]-Glu(OEt)-OEt) | 10 |
| N=C(N)NCCC[C@H](NC(=O)[C@@H](N)Cc1c[nH]c2ccc(O)cc12)C(=O)O [Example 18, 5-Hydroxy-L-tryptophyl-L-arginine] (H-[Trp(5-OH)]-Arg-OH) | 12 |
| N[C@@H](Cc1c[nH]c2ccc(O)cc12)C(=O)N[C@@H](CC(=O)O)C(=O)O.O.O.O [Example 2] (H-[Trp(5-OH)]-Asp-OH) | 5 |
| N[C@@H](Cc1c[nH]c2ccc(O)cc12)C(=O)N[C@@H](CCC(=O)O)C(=O)O [Example 4, 5-Hydroxy-L-tryptophyl-L-glutamic acid] (H-[Trp(5-OH)]-Glu-OH) | 5 |

Value source: patent US4518587A
